target: Inositol 1,4,5-trisphosphate-gated calcium channel ITPR3 (Bos taurus); experiment: Compound was evaluated for its ability to displace [3H]Ins(1,4,5)P3 from membranes prepared from bovine adrenal corticles
pKi: −log10 of the molar value.
PROPERTY_LABEL: pKi

// query pKi value for entry O=C(OC1C(OP(=O)(O)O)C(OP(=O)(O)O)C(OC(=O)c2ccccc2)C(OP(=O)(O)O)C1OP(=O)(O)O)c1ccccc1 (stereo unspecified) > 5.52

###

organism: Homo sapiens; assay: Compound was evaluated for the inhibition of [3H]- Ins(1,4,5)P3 dephosphorylation by human erythrocyte membrane Ins(1,4,5)P3 5-phosphatase
PROPERTY_LABEL: pKi
Note: pKi values are expressed as the negative base-10 logarithm of concentration in M.

// query pKi value for entry O=C(OC1C(OP(=O)(O)O)C(OP(=O)(O)O)C(OC(=O)c2ccccc2)C(OP(=O)(O)O)C1OP(=O)(O)O)c1ccccc1 (stereo unspecified) 4.80
